# SYSTEM_TESTED: type 2 human 5α-reductase (HRED2) (Homo sapiens)
# ASSAY_REMARKS: Cell free assay of 5α-reductase, microsomes of rat 1A cells expressing type 2 isoenzyme (HRED2)
# Assay type: biochemical
# Set-up: expressed in transfected cells; host or cells: rat 1A cells infected with pMV7 retrovirus; microsomes
# CONDITION_DESCRIPTION: read-out: HRED2 IC50; cell free assay; Table 4 quinones
OBSERVABLE: IC50

Oc1ccc2c(O)c3ccccc3cc2c1O
50 µM

Next up:
Given the entry O=C1c2ccccc2C(=O)c2ccccc21 , report its measured IC50. > 100 µM

###

# SYSTEM_TESTED: type 1 human 5α-reductase (HRED1) (Homo sapiens)
# Sequence (P18405 whole entry): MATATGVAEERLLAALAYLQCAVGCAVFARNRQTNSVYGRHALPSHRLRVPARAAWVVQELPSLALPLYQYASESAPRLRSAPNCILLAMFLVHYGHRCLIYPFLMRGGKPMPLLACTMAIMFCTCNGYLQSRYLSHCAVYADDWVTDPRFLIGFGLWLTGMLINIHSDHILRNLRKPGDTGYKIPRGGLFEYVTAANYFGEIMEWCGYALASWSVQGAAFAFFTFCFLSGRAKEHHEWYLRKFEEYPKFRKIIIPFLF
# ASSAY_REMARKS: Cell free assay of 5α-reductase, microsomes of rat 1A cells expressing type 1 isoenzyme (HRED1);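 further: microsomes from rat 1A cells expressing human type 1 5α-reductase, conversion of radiolabeled testosterone to dihydrotestosterone quantified by thin layer chromatography with radioanalytic scanning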
# Type: biochemical
# Parameters: expressed in transfected cells; host or cells: rat 1A cells infected with pMV7 retrovirus; microsomes
# CONDITION_DESCRIPTION: cell free assay; Table 1 flavanoids; read-out: HRED1 IC50
compounds and their reported IC50

Please review the entries below; each comes with its answer.
O=C1c2c(O)cc(O)cc2O[C@H](c2ccc(O)c(O)c2)[C@H]1O
> 100 µM
O=c1cc(-c2ccccc2)oc2cc(O)cc(O)c12
> 100 µM
Oc1cc(O)c2c(c1)O[C@H](c1ccc(O)c(O)c1)[C@H](O)C2 [Epicatechin]
> 100 µM
O=c1c(O)c(-c2ccc(O)c(O)c2)oc2cc(O)cc(O)c12
23 µM

Any idea what IC50 was measured for COc1ccc(-c2coc3cc(O)cc(O)c3c2=O)cc1 ? > 100 µM

###

# SYSTEM_TESTED: type 2 human 5α-reductase (HRED2) (Homo sapiens)
# Sequence (P31213 1-254): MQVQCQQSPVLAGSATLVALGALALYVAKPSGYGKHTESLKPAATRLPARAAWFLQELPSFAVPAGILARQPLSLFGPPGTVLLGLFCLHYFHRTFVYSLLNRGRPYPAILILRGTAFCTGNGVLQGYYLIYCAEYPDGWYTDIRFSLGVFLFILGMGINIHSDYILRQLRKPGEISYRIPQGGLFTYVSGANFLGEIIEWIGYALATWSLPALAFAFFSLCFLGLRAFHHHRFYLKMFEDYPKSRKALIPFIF
# ASSAY_REMARKS: Cell free assay of 5α-reductase, microsomes of rat 1A cells expressing type 2 isoenzyme (HRED2);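 further: labeled testosterone and its product dihydrotestosterone measured in microsomal reaction extracts via thin layer chromatography plus radioanalytic scanning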
# Format: biochemical
# Design: expressed in transfected cells; host or cells: rat 1A cells infected with pMV7 retrovirus; microsomes
# CONDITION_DESCRIPTION: 100 uM; cell free assay; Table 2; read-out: HRED2 % Inhibition @ 100 uM
OBSERVABLE: inhibition at 100 µM (%)
Respond numerically; units are % and should not be typed.

Below: 3 compounds and their reported inhibition at 100 µM.
Oc1cc2c(cc1O)[C@@H]1c3ccc(O)c(O)c3OC[C@]1(O)C2
38
CCCOC(=O)c1cc(O)c(O)c(O)c1 [Propylgallate]
0
CCCCCCCCCCCCOC(=O)c1cc(O)c(O)c(O)c1 [Dodecylgallate]
36

Find the recorded inhibition at 100 µM belonging to CCCCCCCCOC(=O)c1cc(O)c(O)c(O)c1 [Octyl Gallate] and report it. 90

Now the compound COC(=O)c1cc(O)c(O)c(O)c1 [Methylgallate] 3

Item: O=c1c(Br)cc2c(-c3ccccc3S(=O)(=O)O)c3cc(Br)c(O)c(O)c3oc-2c1O 58

// repeat for O=C1C=CC(=C(c2ccc(O)c(O)c2)c2ccccc2S(=O)(=O)O)C=C1O (mixture of isomers) and report 47

Another compound: O=c1oc2c(O)c(O)cc3c(=O)oc4c(O)c(O)cc1c4c23 9

Thanks! And Oc1cccc(O)c1O ? 28

Ref: patent US20030144346A1
